Value source: patent US20110059889A1

TEST_TARGET: T1, soluble human FcRn (shFcRn) (human, UniProt P55899 24-297; P61769 21-119)
T1 construct: Biotinylated for the ELISA, amine-coupled to a CM5 chip for SPR; also called biotinylated shFcRn
T1 sequence (P55899 24-297 limits assumed, chain 1 of 2): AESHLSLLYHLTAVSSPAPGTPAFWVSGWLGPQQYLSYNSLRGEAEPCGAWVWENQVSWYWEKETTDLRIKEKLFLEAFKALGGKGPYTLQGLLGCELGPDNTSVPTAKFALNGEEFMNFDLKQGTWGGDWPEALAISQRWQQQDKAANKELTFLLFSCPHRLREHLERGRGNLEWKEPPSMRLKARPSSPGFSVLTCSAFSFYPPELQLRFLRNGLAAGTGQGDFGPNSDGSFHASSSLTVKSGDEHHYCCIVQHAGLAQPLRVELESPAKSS
T1 sequence (P61769 21-119 limits assumed, chain 2 of 2): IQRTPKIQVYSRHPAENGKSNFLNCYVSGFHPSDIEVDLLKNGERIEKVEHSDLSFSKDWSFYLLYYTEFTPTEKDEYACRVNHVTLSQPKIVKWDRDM
MEASUREMENT_PROTOCOL: SPR pH 7.4; 4-PiperidylAla in place of His
READOUT_TYPE: Kd (µM)
Reply numerically in µM, unit not repeated.

[in] # get_value(readout='Kd', item= RFCTGXFGGLYPC (Pen 3; 4-PiperidylAla 6; Sar 9; NMeLeu 10; disulfide 3-13; C-terminal amide) [Peptide No. 264] )
[out] 6.4
